molecular target: α7–GlyR mutant chimeric channels (Homo sapiens, UniProt P36544, L131M); assay: Membrane potential assay screen, mutant α7–GlyR chimeric channels; format: cell-based; settings: EC50 at α7 GlyR L131M, Avg, sheet 1d
Sequence (P36544 23-229 L131M): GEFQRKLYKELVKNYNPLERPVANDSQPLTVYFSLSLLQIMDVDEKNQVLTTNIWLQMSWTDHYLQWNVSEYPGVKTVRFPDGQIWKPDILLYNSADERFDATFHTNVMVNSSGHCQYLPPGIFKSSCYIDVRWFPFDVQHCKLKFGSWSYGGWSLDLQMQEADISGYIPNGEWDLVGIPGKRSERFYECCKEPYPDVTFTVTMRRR
Sequence (P23415 247-457 partner): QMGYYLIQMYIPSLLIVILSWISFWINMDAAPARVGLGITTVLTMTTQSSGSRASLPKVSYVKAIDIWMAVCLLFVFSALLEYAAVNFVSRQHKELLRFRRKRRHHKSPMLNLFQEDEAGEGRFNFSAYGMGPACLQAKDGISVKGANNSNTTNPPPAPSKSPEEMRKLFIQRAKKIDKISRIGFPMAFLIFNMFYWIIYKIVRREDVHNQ
REPORTED ENDPOINT: EC50

Query: Consider the compound shown here: `COC(=O)[C@H]1[C@@H](OC(=O)c2ccccc2)C[C@@H]2CC[C@H]1N2C` What is its recorded EC50?
Reply: > 30 µM

====

biological target: α7–GlyR mutant chimeric channels (Homo sapiens, UniProt P36544, L141P); test: Membrane potential assay screen, mutant α7–GlyR chimeric channels; type: cell-based; details: EC50 at α7 GlyR L141P, Avg, sheet 1d
Sequence (P36544 23-230 L141P): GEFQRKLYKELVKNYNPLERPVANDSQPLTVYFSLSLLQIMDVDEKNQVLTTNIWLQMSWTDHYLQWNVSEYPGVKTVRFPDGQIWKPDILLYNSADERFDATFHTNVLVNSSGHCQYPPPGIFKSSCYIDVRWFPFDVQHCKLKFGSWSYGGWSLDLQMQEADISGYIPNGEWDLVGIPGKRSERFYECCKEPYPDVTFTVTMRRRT
Sequence (P23415 247-457 partner): as the sequence (P23415 247-457 partner) above
REPORTED ENDPOINT: EC50

Query: Consider the molecule shown here: `COC(=O)[C@H]1[C@@H](OC(=O)c2ccccc2)C[C@@H]2CC[C@H]1N2C` What is its recorded EC50?
Reply: > 30 µM
